In this section we review reported pKd values for a set of binders.
# TEST_TARGET: T1, hOX40-his (human, UniProt P43489 29-216)
# T1 construct: range 1-216; Made in HEK293; The stated range starts at residue 1 (holds the signal peptide of the entry); no cleavage site stated; not shown: his tag
# T1 sequence (looked up): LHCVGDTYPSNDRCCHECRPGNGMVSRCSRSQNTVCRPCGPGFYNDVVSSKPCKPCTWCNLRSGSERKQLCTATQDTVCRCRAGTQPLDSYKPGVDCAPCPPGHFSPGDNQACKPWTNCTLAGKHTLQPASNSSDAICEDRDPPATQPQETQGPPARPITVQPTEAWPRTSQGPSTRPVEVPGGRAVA
# ASSAY_EXPLANATION: BIACORE, antibody on the probe, 20 nM OX40-his
Kindly note that pKd refers to -log10 of the concentration in mol/L and answer with the value alone.

1. T + VGL + TD (antibody, human IgG1, kappa, V domains shown) VH: QVQLEESGGGVVQPGESLRLSCAASGFTFSSYGMHWVRQAPGKGLEWVAVISYDGSNQYYADSVKGRFTISRDNSKNTLYLQMNSLRAEDTAVYYCAKDNQDTSPDVGIDYWGQGTLVTVSS VL: DIQMTQSPSSLSASVGDTVTITCRASQNISPFLNWYQQKPGKAPKLLIYAAVGLQSGVPSRFSGSGSGTDFTLTISSLQPEDFATYYCQQYTDYPLTFGGGTKVEIKR | 9.58

Exercise: Reported pKd for 11D4 (antibody, V domains shown) VH: EVQLVESGGGLVQPGGSLRLSCAASGFTFSSYSMNWVRQAPGKGLEWVSYISSSSSTIDYADSVKGRFTISRDNAKNSLYLQMNSLRDEDTAVYYCARESGWYLFDYWGQGTLVTVSS VL: DIQMTQSPSSLSASVGDRVTITCRASQGISSWLAWYQQKPEKAPKSLIYAASSLQSGVPSRFSGSGSGTDFTLTISSLQPEDFATYYCQQYNSYPPTFGGGTKVEIKR : what is it?
Solution: 8.88
